Ref: patent US20240239799A1

- TESTED_TARGET: SHP2 (Avi-G4SG4S-PTPN11(1-525)) (Homo sapiens, UniProt Q06124)
- Construct: (Avi-G4SG4S-PTPN11(1-525)); purchased Viva Biotech Ltd
- Sequence (Q06124 1-525): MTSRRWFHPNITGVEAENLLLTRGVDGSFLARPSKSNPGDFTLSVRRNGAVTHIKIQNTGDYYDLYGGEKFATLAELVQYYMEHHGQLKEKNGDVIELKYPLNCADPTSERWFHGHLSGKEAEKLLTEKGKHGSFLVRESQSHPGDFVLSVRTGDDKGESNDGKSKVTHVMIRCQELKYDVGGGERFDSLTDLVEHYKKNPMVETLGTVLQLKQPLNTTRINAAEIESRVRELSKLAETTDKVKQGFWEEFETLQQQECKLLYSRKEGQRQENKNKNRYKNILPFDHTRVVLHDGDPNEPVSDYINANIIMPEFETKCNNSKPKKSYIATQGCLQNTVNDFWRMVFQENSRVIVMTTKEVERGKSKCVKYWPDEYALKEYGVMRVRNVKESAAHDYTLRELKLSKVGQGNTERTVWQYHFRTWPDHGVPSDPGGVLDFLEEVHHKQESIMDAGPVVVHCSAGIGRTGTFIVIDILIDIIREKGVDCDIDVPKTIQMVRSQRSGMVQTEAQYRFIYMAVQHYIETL
- ASSAY_INFO: Binding kinetic assay by surface plasmon resonance (SPR)
- MEASUREMENT_CONTEXT: Biacore T200, single cycle kinetic, 1:1 Langmuir binding model
- Protocol: A binding assay for measuring SHP2 inhibitors binding kinetic was developed using a Biacore T200 Instrument (Cytiva, Sweden). […] Data analysis was performed by Biacore T200 Evaluation software (Cytiva), and kinetic parameters were evaluated by a global fitting according to a 1:1 Langmuir binding model. Each molecule was tested in triplicate on separate flow channels.
RECORDED_METRIC: Residence time 1/koff SPR (s)

Solved entries (count: 2):
| COMPOUND | UNIT_NAME | Residence time 1/koff SPR |
| --- | --- | --- |
| Nc1nccc(Sc2cnc(N3CCC4(CC3)Cn3ncc(Br)c3[C@H]4N)cn2)c1Cl [Example 8] | s | 8621 |
| Nc1nccc(Sc2cnc(N3CCC4(CC3)Cn3nccc3[C@H]4N)c3cncn23)c1Cl [Example 19] | s | 5464 |

I: Nc1nccc(Sc2cnc(N3CCC4(CC3)Cn3ncc(F)c3[C@H]4N)cn2)c1Cl [Example 9]
II: N[C@@H]1c2c(F)cnn2CC12CCN(c1cnc(Sc3ccn4ccnc4c3Cl)cn1)CC2 [Example 49]
Q: Higher Residence time 1/koff SPR between I and II ? Identify your pick by its label.
Result: II
